The reported measurements were obtained from patent US10689378B2.

molecular target: wild type PRC2 (wtPRC2) complex (Homo sapiens, UniProt O75530); test: EED LC-MS assay (SAH production by PRC2); assay type: biochemical; conditions: PRC2 LC-MS assay; read-out: (b) IC50 EED LC-MS Qualified
Sequence (O75530 whole entry): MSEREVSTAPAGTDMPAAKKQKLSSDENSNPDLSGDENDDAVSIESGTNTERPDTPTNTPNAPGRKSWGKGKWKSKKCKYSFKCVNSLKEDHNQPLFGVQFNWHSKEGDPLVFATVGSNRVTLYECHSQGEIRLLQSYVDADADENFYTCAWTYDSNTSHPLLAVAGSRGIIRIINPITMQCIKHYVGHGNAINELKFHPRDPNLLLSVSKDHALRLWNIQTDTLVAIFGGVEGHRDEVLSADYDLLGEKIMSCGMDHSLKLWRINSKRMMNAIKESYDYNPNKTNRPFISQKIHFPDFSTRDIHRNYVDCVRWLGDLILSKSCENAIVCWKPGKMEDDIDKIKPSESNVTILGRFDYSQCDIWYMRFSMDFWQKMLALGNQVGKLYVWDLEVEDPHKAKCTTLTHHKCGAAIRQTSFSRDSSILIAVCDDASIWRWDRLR
Sequence (Q15910 whole entry partner): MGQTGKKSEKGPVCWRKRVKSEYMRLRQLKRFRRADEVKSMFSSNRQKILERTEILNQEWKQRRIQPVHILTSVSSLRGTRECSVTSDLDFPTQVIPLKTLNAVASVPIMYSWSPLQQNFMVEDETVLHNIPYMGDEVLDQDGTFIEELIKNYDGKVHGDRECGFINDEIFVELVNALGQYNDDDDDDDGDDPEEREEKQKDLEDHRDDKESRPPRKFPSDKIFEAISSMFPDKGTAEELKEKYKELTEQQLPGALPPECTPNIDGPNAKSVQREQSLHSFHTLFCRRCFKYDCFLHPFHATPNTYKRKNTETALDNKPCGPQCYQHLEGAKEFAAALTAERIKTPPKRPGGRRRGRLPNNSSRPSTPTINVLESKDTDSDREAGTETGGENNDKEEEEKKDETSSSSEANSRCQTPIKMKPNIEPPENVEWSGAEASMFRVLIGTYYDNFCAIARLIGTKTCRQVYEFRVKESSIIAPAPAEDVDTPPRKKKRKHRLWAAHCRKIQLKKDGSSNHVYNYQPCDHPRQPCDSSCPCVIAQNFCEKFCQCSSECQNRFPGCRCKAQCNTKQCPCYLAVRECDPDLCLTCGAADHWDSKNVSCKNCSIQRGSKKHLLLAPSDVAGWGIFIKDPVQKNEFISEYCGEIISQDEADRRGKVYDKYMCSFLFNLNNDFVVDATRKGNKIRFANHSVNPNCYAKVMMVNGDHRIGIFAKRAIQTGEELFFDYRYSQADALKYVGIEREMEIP
Sequence (Q15022 whole entry partner): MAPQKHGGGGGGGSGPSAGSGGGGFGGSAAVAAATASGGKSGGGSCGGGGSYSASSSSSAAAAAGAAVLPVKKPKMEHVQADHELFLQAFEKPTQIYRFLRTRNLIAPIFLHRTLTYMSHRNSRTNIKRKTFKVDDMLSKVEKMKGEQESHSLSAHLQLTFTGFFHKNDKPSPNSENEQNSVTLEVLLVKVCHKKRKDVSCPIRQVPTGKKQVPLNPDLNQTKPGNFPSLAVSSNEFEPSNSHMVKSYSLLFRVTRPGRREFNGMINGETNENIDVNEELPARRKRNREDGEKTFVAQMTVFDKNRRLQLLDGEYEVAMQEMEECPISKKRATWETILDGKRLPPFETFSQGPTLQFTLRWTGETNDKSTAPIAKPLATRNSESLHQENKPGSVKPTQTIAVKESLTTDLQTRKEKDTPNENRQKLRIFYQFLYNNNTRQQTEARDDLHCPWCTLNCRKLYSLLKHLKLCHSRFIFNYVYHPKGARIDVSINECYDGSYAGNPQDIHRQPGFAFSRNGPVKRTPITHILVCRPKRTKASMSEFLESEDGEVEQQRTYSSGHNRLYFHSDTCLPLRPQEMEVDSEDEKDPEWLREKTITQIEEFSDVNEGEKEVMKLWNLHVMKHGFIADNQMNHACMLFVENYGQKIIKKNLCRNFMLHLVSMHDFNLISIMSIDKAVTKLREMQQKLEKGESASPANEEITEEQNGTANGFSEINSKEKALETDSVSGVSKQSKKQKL
Sequence (Q09028 whole entry partner): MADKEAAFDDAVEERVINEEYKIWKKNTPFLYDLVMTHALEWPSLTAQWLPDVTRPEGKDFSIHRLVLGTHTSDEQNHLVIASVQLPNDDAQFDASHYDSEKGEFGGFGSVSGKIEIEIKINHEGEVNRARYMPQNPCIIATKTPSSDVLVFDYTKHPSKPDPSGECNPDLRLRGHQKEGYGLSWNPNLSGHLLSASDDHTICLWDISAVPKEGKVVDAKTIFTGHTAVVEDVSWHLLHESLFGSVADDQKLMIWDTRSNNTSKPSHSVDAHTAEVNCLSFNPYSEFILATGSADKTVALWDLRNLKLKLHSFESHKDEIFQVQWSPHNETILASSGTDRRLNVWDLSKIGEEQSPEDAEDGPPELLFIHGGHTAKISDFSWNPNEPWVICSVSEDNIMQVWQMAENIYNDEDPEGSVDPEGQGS
Sequence (Q6ZN18 whole entry partner): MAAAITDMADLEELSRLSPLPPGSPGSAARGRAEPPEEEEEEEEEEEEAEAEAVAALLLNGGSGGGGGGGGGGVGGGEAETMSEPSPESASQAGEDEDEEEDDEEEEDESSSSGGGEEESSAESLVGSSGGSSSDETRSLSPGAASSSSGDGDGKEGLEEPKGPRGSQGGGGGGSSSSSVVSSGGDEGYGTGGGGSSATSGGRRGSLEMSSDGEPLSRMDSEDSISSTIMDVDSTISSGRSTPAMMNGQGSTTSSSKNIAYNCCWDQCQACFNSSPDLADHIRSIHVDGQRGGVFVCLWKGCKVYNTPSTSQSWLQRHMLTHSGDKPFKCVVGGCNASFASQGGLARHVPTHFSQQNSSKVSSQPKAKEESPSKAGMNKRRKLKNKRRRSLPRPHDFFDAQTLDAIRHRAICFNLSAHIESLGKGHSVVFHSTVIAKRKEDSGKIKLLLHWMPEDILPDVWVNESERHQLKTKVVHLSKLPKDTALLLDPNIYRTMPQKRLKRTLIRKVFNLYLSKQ
Classes (IC50): bottom (below 40 nM), middle (40 nM to below 200 nM), top (200 nM or more)

Previously resolved entries follow.
>>> discrete_label("CCc1cc(S(C)(=O)=O)ccc1-c1ccc(NCc2c(F)cccc2OC)n2cnnc12 [Example 271]")
"middle"
>>> discrete_label("COc1cccc(F)c1CNc1ccc(-c2cnc(OC(C)C)nc2C)c2nncn12 [Example 332]")
"bottom"
>>> discrete_label("COc1cc(F)cc(F)c1CNc1ccc(-c2ccc(C)nc2C(F)F)c2nncn12 [Example 314]")
"middle"
>>> discrete_label("COc1ncc(-c2ccc(NCc3c(F)cc(F)cc3OC)n3cnnc23)c(C)n1 [Example 323]")
"bottom"
>>> discrete_label("COc1c(F)ccc(F)c1CNc1ccc(-c2cnc(C)nc2C)c2nncn12 [Example 333]")
"top"
>>> discrete_label("COc1cccc(F)c1CNc1ccc(-c2cnccc2Cl)c2nncn12 [Example 236]")
"middle"

For the next question, use this compound.
Would you mind sorting COc1cccc(F)c1CNc1ccc(-c2ccc(N3CCOCC3)nc2C)c2nncn12 [Example 266] into the appropriate category?
middle

---

target: wild type PRC2 (wtPRC2) complex (Homo sapiens, UniProt O75530); experiment: EED LC-MS assay (SAH production by PRC2); assay type: biochemical; settings: read-out: (b) IC50, EED LC-MS Qualified
pIC50: −log10 of the molar value.
Each entry gets rule not met if its pIC50 stays under 7, and rule met if its pIC50 is 7 or above.

>>> discrete_label("CCN1CCC(S(=O)(=O)c2ccc(-c3ccc(NCc4c(F)cccc4OC)n4cnnc34)cn2)CC1")
"rule met"
>>> discrete_label("COc1cccc(F)c1CNc1ccc(-c2cccnc2F)c2nncn12")
"rule met"
>>> discrete_label("COc1cccc(F)c1CNc1ccc(-c2cncnc2)c2nncn12")
"rule met"
>>> discrete_label("COc1cccc(F)c1CNc1ccc(-c2cccnc2C)c2nncn12")
"rule met"
>>> discrete_label("COc1ccccc1CNc1ccc(-c2ccc(S(=O)(=O)NCCO)cc2)c2nncn12")
"rule not met"

Entry COc1cccc(F)c1CNc1ccc(-c2cnc(S(C)(=O)=O)c(C)c2)c2nncn12 : is its pIC50 no less than 7?
rule not met

---

Quick reference: IC50 of the listed items.
test system: H3K27 methylation in G401 cell; experiment: ELISA (H3K27 methylation) assay in G401 cells; type: cell-based, human; details: Homo sapiens, G-401, H3K27 methylation ELISA, read-out: (c) IC50 ELISA Qualified

In the examples that follow, each entry is paired with its recorded IC50.
>>> measured_result("COc1cccc(F)c1CNc1ccc(-c2ccc(S(=O)(=O)C3CCNCC3)nc2)c2nncn12")
"13.2 nM"
>>> measured_result("COc1cc(C)c(-c2ccc(NCc3c(F)cc(F)cc3OC)n3cnnc23)cn1")
"71.6 nM"

Enter recorded IC50 with H3K27 methylation in G401 cell for COc1ncc(-c2ccc(NCc3c(F)cc(F)cc3OC)n3cnnc23)c(C)n1 here.
14.3 nM

Enter recorded IC50 with H3K27 methylation in G401 cell for COc1cccc(F)c1CNc1ccc(-c2cnccc2Cl)c2nncn12 here.
66.3 nM
